studySystem: T1, CID1R^ML, maximum likelihood reconstructed CBP-interacting domain (CID) of the NCOA family from an early …
T1 chain: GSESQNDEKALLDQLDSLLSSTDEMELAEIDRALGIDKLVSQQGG
procedureText: ITC
readoutType: pKd
A value of pKd is the negative decimal logarithm of a concentration given in moles per litre.

Give the measured pKd for IMPPALQQLLQTLKSPNSPQQQQQVLHILKSNPQLMAAFIKQRSQQQQ (domain or fragment)
5.01

// data source = paper PMC8967867
